PROTOCOL DETAILS: Serum esketamine levels (LC-MS/MS) after intranasal esketamine 56 mg in TRD patients
STUDY CONDITIONS: human, serum, other: intranasal, 56 mg, AUC value, single patient, serum, 0-72 h, group 1 patient on paroxetine, bupropion, valproate and atorvastatine
METRIC: AUC
Provide a numeric answer, followed by its unit.

AUC reading for CN[C@]1(c2ccccc2Cl)CCCCC1=O [esketamine, (S)-isomer of ketamine] : 628 ng·h/mL

----------
PROTOCOL DETAILS: Serum esketamine levels (LC-MS/MS) after intranasal esketamine 56 mg in TRD patients
STUDY CONDITIONS: human, serum, other: intranasal, 56 mg, AUC value, average of group, serum, 0-72 h, group 6 (TCAs/mirtazapine/trazodone)
METRIC: AUC (ng·h/mL)
Express your answer in ng·h/mL, writing the number without its unit.

AUC reading for CN[C@]1(c2ccccc2Cl)CCCCC1=O [esketamine, (S)-isomer of ketamine] : 705

meta.source: paper PMC12307992
